Molecular target: panel of 442 kinases (Homo sapiens, UniProt P36888, K663Q)
Construct: purchased KINOMEscan
Assay type: binding
Details: Compound Concentration 10 µM
Measure Name: KINOMEscan: FLT3(K663Q)
No unit in the answer, please; the number alone is enough.

Consider "CCOc1cc(C(=O)N2CCC(N3CCN(C)CC3)CC2)ccc1Nc1ncc2c(n1)N(C1CCCC1)c1ccccc1C(=O)N2C" . Its measured KINOMEscan: FLT3(K663Q) is 100

Consider "COc1cc(C(=O)N2CCC(N3CCN(C)CC3)CC2)ccc1Nc1ncc2c(n1)N1CCc3cccc(c31)C(=O)N2C" . Its measured KINOMEscan: FLT3(K663Q) is 100

Consider "COc1cc(C(=O)N2CCC(N3CCN(C)CC3)CC2)ccc1Nc1ncc2c(n1)N(C1CCCC1)c1ccccc1C(=O)N2C" . Its measured KINOMEscan: FLT3(K663Q) is 100

Consider "COc1cc(C(=O)N2CCC(N3CCN(C)CC3)CC2)ccc1Nc1ncc2c(n1)N(C)c1ccccc1C(=O)N2C" . Its measured KINOMEscan: FLT3(K663Q) is 97

###

For each record, write down the corresponding KINOMEscan: DCAMKL2.
Target: panel of 442 kinases (Homo sapiens)
Construct: purchased KINOMEscan
Type: binding
Details: Compound Concentration 10 µM

Consider "CCOc1cc(C(=O)N2CCC(N3CCN(C)CC3)CC2)ccc1Nc1ncc2c(n1)N(C1CCCC1)c1ccccc1C(=O)N2C" . Its measured KINOMEscan: DCAMKL2 is 3.6

Consider "COc1cc(C(=O)N2CCC(N3CCN(C)CC3)CC2)ccc1Nc1ncc2c(n1)N1CCc3cccc(c31)C(=O)N2C" . Its measured KINOMEscan: DCAMKL2 is 1.2

Consider "COc1cc(C(=O)N2CCC(N3CCN(C)CC3)CC2)ccc1Nc1ncc2c(n1)N(C)c1ccccc1C(=O)N2C" . Its measured KINOMEscan: DCAMKL2 is 0.45

Consider "COc1cc(C(=O)N2CCC(N3CCN(C)CC3)CC2)ccc1Nc1ncc2c(n1)N(C1CCCC1)c1ccccc1C(=O)N2C" . Its measured KINOMEscan: DCAMKL2 is 1.1

###

For each record, write down the corresponding KINOMEscan: MEK6.
Biological target: panel of 442 kinases (Homo sapiens, UniProt P52564)
Construct: purchased KINOMEscan
Sequence (P52564 1-334): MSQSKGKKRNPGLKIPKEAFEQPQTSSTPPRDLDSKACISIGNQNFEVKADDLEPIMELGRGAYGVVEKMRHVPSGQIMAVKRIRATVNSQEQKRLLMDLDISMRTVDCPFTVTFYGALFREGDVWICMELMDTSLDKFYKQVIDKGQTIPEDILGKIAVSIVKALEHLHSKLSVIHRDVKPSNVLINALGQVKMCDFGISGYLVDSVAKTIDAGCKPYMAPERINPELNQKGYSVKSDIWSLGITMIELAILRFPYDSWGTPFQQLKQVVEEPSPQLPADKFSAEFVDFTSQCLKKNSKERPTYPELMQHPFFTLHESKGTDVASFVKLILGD
Assay type: binding
Conditions: Compound Concentration 10 µM
No unit in the answer, please; the number alone is enough.

Consider "COc1cc(C(=O)N2CCC(N3CCN(C)CC3)CC2)ccc1Nc1ncc2c(n1)N(C1CCCC1)c1ccccc1C(=O)N2C" . Its measured KINOMEscan: MEK6 is 61

Consider "CCOc1cc(C(=O)N2CCC(N3CCN(C)CC3)CC2)ccc1Nc1ncc2c(n1)N(C1CCCC1)c1ccccc1C(=O)N2C" . Its measured KINOMEscan: MEK6 is 84

Consider "COc1cc(C(=O)N2CCC(N3CCN(C)CC3)CC2)ccc1Nc1ncc2c(n1)N(C)c1ccccc1C(=O)N2C" . Its measured KINOMEscan: MEK6 is 83

Consider "COc1cc(C(=O)N2CCC(N3CCN(C)CC3)CC2)ccc1Nc1ncc2c(n1)N1CCc3cccc(c31)C(=O)N2C" . Its measured KINOMEscan: MEK6 is 66

The measurements presented in this section are drawn from paper PMC3914206.
